test: SPR (Biocore T100) binding affinity to sLeA; conditions: Example 3, Table 7, mean
Property Name: pKd
pKd is defined as minus the log10 of a concentration measured in mol/L.

Molecule: Clone 4771: Humanized IgG1 antibody, heavy chain variable region HvCh3 (SEQ ID NO: 3), light chain LiCh3 (SEQ ID NO: 7) (antibody, V domains shown) VH: EVQLVESGGGLVQPGGSLRLSCAASGFTFSTNAMSWVRQAPGKGLEWVARLRPKSDNYATYYADSVKGRFTISRDDSKNTLYLQMNSLRAEDTAVYYCVTGTGFWGQGTTLTVSS VL: DIVMTQSPDSLAVSLGERATINCKSSQSLLNSGNQKNYLTWYQQKPGQPPKLLFYWTSTRESGVPDRFSGSGSGTDFTLTISSLQAEDVAVYYCQNDYTSPYTFGQGTKLEIK
Result Value: 4.23

Okay, now this molecule:
Which measured pKd value corresponds to Clone 4766: Humanized IgG1 antibody, heavy chain variable region HvCh2 (SEQ ID NO: 2), light chain LiCh2 (SEQ ID NO: 6) (antibody, V domains shown) VH: EVQLVESGGGLVQPGGSLRLSCAASGFTFSTNAMSWVRQAPGKGLEWVARLRPKSDNYATYYADSVKGRFTISRDNSKNTLYLQMNSLRAEDTAVYYCVTGTGFWGQGTTLTVSS VL: DIVMTQSPDSLAVSLGERVTMNCKSSQSLLNSGNQKNYLTWYQQKPGQPPKLLIYWTSTRESGVPDRFSGSGSGTDFTLTISSVQAEDVAVYYCQNDYTSPYTFGQGTKLEIK ?
3.21
